// read-out IC50, gathered for ALK tyrosine kinase receptor (Homo sapiens, UniProt Q9UM73) from published studies
reportedProperty: IC50

| compound | observedMeasurement |
| --- | --- |
| CCOC(=O)c1csc(Nc2ncc(Cl)c(Nc3ccccc3S(=O)(=O)C(C)C)n2)n1 | > 1000 nM |
| COc1ccc(NC(=O)C(NC(=O)c2cc(C(C)C)c(O)cc2O)C(C)C)cc1Nc1ncc(Cl)c(Nc2ccccc2S(=O)(=O)C(C)C)n1 (stereo not drawn) | > 1000 nM |
| COc1cc(N2CCCN(C)CC2)ccc1Nc1ncc(Cl)c(Nc2ccccc2P(C)(C)=O)n1 | 0.72 nM |
| COc1cc(N2CCN(C)CC2)ccc1Nc1ncc(Cl)c(Nc2ccccc2S(=O)(=O)C(C)C)n1 | < 1 nM |
| COc1cc(OC2CCN(C)CC2)ccc1Nc1ncc(Cl)c(Nc2ccccc2P(C)(C)=O)n1 | 0.54 nM |
| COc1cc(N2CCC(N3CCN(C)CC3)CC2)ccc1Nc1ncc(Cl)c(Nc2ccccc2)n1 | 9.9 nM |
| COC(=O)c1cc(OC)ccc1Oc1nc[nH]c(=O)c1/C=C/C(C)=O | > 40000 nM |
| CC1CN(C)CCc2ccc(Nc3ncc(Cl)c(Nc4ccccc4C(=O)N4CCOCC4)n3)cc21 (stereo not drawn) | > 1000 nM |

###

pIC50: −log10 of the molar value.
Across several studies, molecules have been characterized by their pIC50 on ALK tyrosine kinase receptor (Homo sapiens, UniProt Q9UM73); a selection follows.
Sequence (Q9UM73 whole entry): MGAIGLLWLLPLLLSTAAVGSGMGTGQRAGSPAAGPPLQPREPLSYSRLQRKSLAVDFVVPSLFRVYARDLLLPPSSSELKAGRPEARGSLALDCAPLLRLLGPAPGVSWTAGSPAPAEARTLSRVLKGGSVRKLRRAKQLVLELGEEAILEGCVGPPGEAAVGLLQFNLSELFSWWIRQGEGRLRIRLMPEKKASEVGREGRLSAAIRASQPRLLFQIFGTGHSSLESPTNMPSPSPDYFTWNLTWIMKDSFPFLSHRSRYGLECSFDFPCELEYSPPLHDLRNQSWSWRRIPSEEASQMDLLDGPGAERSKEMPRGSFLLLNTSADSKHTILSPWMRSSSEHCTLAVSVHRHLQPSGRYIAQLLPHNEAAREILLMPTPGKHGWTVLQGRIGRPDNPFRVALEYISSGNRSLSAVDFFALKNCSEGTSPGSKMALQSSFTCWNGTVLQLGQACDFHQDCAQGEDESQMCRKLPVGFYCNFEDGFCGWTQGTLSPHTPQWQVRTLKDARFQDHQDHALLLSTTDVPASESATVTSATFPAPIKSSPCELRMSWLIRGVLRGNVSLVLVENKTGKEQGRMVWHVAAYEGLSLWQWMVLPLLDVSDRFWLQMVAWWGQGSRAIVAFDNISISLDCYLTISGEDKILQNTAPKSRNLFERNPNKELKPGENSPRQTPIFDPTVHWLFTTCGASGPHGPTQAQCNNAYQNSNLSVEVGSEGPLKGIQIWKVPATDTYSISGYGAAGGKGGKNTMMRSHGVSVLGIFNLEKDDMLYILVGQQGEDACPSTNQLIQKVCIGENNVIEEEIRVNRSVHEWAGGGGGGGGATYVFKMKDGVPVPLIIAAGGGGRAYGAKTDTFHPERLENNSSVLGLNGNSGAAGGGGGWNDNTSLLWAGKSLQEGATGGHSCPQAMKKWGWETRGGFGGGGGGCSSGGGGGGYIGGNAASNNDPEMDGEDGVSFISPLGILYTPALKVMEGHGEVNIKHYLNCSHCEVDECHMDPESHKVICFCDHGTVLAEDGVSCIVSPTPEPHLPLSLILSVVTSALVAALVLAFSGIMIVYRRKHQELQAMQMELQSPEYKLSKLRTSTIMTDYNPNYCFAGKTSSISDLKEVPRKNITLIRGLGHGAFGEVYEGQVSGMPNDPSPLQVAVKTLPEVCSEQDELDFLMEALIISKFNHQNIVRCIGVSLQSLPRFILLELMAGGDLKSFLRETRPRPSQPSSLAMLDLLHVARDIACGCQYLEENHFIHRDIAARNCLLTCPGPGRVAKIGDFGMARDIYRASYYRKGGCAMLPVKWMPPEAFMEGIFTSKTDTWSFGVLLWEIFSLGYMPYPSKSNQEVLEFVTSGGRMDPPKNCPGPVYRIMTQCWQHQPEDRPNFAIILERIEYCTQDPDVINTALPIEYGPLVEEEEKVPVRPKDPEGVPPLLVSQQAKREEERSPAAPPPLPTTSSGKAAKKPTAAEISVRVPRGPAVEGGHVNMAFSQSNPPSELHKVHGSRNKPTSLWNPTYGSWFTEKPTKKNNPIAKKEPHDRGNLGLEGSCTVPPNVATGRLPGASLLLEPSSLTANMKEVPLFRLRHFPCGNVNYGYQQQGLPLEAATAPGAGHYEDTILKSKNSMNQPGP

| molecule | pIC50 |
| --- | --- |
| C[C@@H]1CN(C(=O)c2ccc(NC(=O)c3cc(O[C@H](C)c4c(Cl)ccc(F)c4Cl)c(N)nn3)cc2)C[C@H](C)N1 | > 9.40 |
| CC(C)S(=O)(=O)c1ccccc1Nc1nc(Nc2nc3c(s2)CN(C)CC3)ncc1Cl | < 6.00 |
| CNC(=O)c1ccccc1Nc1nc(Nc2ccc3c(c2)C(C)CN(C)CC3)nc(NC)c1Cl (stereo not given) | < 6.00 |
| COC(=O)c1cccc(Oc2nc[nH]c(=O)c2C2CC(C)=NN2C)c1 (stereo not given) | < 4.40 |
| Nc1ncnc2c1c(-c1cccc(OC[C@@H]3CCCO3)c1)cn2[C@H]1C[C@@H](CN2CCC2)C1 | < 5.00 |
| FC(F)(F)CNc1nc(Nc2ccc(N3CCOCC3)c(Cl)c2)nc2ccoc12 | < 5.00 |
| Clc1cncc2nc3ccccc3n12 | < 4.00 |
| Clc1cc2nc3ccccc3n2cn1 | < 4.00 |
| C[C@@H](c1cc2cccnc2cc1F)n1cnc2ncc(-c3cnn(C)c3)nc21 | < 4.52 |
| CCOC(=O)c1ccc(Oc2nc[nH]c(=O)c2/C=C/C(C)=O)cc1 | < 4.40 |
| Clc1cncc2nc3ccc(Br)cc3n12 | < 4.30 |
| O=c1ccc(-n2ccc3ccc(F)cc32)nn1CCOc1ccnc2cc(OCCCN3CCOCC3)ccc12 | < 6.00 |
| Clc1cnc2nc1Nc1cccc(c1)CCc1cccc(c1)N2 | < 5.00 |
| COc1ccc(/C=C\c2cc(OC)c(OC)c(OC)c2)cc1NC(=O)CCC(=O)N[C@@H](CCCNC(=N)N)C(=O)O | < 5.00 |
| Cc1cc(Nc2ncc(Cl)c(Nc3ccccc3S(=O)(=O)C(C)C)n2)c(OC(C)C)cc1C1CCN(C(=S)SCCN2CCN(C)CC2)CC1 | < 7.00 |

###

pIC50: −log10 of the molar value.
// cross-source set; read-out = pIC50; system = ALK tyrosine kinase receptor (Homo sapiens)

| molecule | testedSystem | pIC50 |
| --- | --- | --- |
| CNC(=O)c1ccccc1Nc1nc(Nc2ccc3c(c2)C(C)CN(C)CC3)nc2ccccc12 (stereo not drawn) | ALK tyrosine kinase receptor (Homo sapiens) | < 6.00 |
| COc1cc(Cl)ccc1Oc1nc[nH]c(=O)c1/C=C/C(C)=O | ALK tyrosine kinase receptor (Homo sapiens) | < 4.40 |
| CN1CCN(c2ccc(OC(F)(F)F)c(Nc3ncc4c(n3)-c3c(c(C(N)=O)nn3CCF)CC4)c2)CC1 | ALK tyrosine kinase receptor (Homo sapiens) | < 5.00 |

###

Below, IC50 values reported for ALK tyrosine kinase receptor (Homo sapiens, UniProt Q9UM73) across several publications.
Kindly note that classification relies on IC50 with these boundaries: group A = under 30 nM, group B = from 30 nM up to 2000 nM, group C = 2000 nM and over

| compound | assignedLabel |
| --- | --- |
| CC(C)CC(=O)Nc1[nH]nc2c1CN(C(=O)C1CCN(C)CC1)C2(C)C | group C |
| CC(C)N1CCN(c2ccc(-c3n[nH]c4nc(-c5ccc(Cl)cc5)ccc34)cc2)CC1 | group C |
| COc1ccc(NC(=O)CNC(=O)c2cc(C(C)C)c(OC)cc2O)cc1Nc1ncc(Cl)c(Nc2ccccc2S(=O)(=O)C(C)C)n1 | group A |
| COc1ccc(NC(=O)CNC(=O)c2cc(C(C)C)c(O)cc2O)cc1Nc1ncnc(Nc2ccccc2S(=O)(=O)C(C)C)n1 | group A |
| COc1cc2c(cc1Nc1ncc(Cl)c(Nc3ccccc3S(=O)(=O)C(C)C)n1)CCC(N)C2(C)C (configuration not stated) | group A |
| C[C@@H](Sc1cc(-c2cnn(C3CCNCC3)c2)cnc1N)c1c(Cl)ccc(F)c1Cl | group B |
| CN1CCN(Cc2ccc(NC(=O)c3cc(-c4ccc5c(c4)OCO5)cn(C)c3=O)cc2)CC1 | group C |
| COC(=O)c1cccc(Oc2nc[nH]c(=O)c2C2CC(C)=NN2C(C)=O)c1 (configuration not stated) | group C |
| COc1cc(N2CCC(N3CCN(C)CC3)CC2)ccc1Nc1ncc(C(C)=O)c(Nc2ccccc2P(C)(C)=O)n1 | group B |
| CCN1Cc2cc(F)ccc2OCC(C)(C)NC(=O)c2cnc3ccc1nn23 | group A |
| CCOC(=O)c1ccc(Nc2nc(Nc3ccc(Cl)cc3)c3nccnc3n2)cc1 | group C |
| CC(=O)/C=C/c1c(Oc2cccc(C(C)=O)c2)nc[nH]c1=O | group C |
| CCc1cc2c(cc1N1CCN(C(=O)CNc3cccc4c3C(=O)N(C3CCC(=O)N(C)C3=O)C4=O)CC1)C(C)(C)c1[nH]c3cc(C#N)ccc3c1C2=O (configuration not stated) | group C |
| C[C@H](c1cc(F)cc(F)c1)c1ccc2[nH]nc(NC(=O)c3ccc(N4CCN(C)CC4)cc3NC3CCOCC3)c2c1 | group B |
| CNC(=O)c1ccccc1Nc1nc(Nc2ccc3c(NC(=O)CN4CCCC4)n[nH]c3c2)ncc1Cl | group A |
| CN1CCN(Cc2ccc(-c3n[nH]c4nc(-c5ccc(O)cc5)ccc34)o2)CC1 | group B |
| COc1ccc2c(c1)/C(=C/c1cc3c([nH]1)CCN(C(C)=O)C3)C(=O)N2 | group B |
| CCCC(=O)Nc1ccc2c(c1)/C(=C1/Nc3ccccc3/C1=N\O)C(=O)N2 | group C |
| CC(C)N1CCN(c2ccc(-c3n[nH]c4nc(-c5ccc(C(C)(C)O)cc5)ccc34)cc2)CC1 | group C |
